Molecular target: human TLR8 (Homo sapiens (Human), UniProt Q9NR97)
Sequence (Q9NR97 27-1041): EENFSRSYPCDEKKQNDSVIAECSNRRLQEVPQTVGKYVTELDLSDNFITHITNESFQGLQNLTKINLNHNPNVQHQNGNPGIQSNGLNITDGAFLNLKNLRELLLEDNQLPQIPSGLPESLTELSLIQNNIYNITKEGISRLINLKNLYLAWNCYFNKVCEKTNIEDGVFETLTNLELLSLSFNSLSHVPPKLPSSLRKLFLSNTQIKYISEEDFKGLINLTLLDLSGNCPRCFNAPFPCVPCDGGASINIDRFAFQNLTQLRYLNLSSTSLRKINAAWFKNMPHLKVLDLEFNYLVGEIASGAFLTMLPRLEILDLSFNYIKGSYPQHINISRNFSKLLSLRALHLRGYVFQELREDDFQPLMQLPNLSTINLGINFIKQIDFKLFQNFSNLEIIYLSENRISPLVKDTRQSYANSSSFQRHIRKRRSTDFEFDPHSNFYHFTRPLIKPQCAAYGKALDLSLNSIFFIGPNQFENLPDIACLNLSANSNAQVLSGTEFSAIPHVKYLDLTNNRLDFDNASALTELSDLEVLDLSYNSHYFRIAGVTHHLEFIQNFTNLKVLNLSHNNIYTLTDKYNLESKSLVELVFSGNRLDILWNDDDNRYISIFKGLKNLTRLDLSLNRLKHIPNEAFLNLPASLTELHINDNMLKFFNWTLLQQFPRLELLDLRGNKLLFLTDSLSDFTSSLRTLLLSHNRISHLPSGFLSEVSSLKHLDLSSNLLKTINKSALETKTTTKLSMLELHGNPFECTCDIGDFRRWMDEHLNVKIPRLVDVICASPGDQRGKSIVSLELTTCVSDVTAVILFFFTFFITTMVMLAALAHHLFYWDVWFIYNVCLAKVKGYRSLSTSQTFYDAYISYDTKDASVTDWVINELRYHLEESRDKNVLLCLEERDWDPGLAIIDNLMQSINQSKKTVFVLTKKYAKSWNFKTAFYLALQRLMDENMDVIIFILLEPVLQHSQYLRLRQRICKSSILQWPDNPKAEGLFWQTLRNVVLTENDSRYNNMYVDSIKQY
Test: TLR8 inhibition reporter assay (HEK-Blue SEAP);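 note: SEAP driven by IFN-β minimal promoter with five NF-κB and AP-1 sites, compounds tested 0.05 nM to 50 µM, 22 h incubation, inhibition relative to agonist plus DMSO wells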
Conditions: read-out: TLR8 IC50; HEK-Blue cells overexpressing human TLR8, R848 15.9 μM stimulation, SEAP reporter
pIC50: −log10 of the molar value.
Outcome Measure: pIC50

> print(dat)
                                   compound                         target.under.test  outcome.measure  numeric.readout
1  CNC(=O)CN1CCN(c2ncc3[nH]c(-c4cc(OC)c5ncnn5c4)c(C(C)C)c3c2F)CC1  human TLR8 (Homo sapiens (Human), UniProt Q9NR97)            pIC50             8.57

(I) Cc1c(N2CCC(N3CC4(COC4)C3)CC2)ncc2[nH]c(-c3cc(C)c4ncnn4c3)c(C(C)C)c12
(II) Cc1cc(-c2[nH]c3cnc(N4CCC(NC5(C)COC5)CC4)c(F)c3c2C(C)C)cn2ncnc12
(III) Cc1c(-c2[nH]c3cnc(C4CCC(NC5COC5)CC4)cc3c2C(C)C)cn2ncnc2c1C (stereo not shown) [Example 346]
Ordering: ascending pIC50. Your reply should list the labels following the order given in the request.
III, I, II

----------
Target: human TLR8 (Homo sapiens (Human))
Experiment: TLR8 inhibition reporter assay (HEK-Blue SEAP)
Details: read-out: TLR8 IC50; HEK-Blue cells overexpressing human TLR8, R848 15.9 μM stimulation, SEAP reporter
Outcome Measure: IC50 (nM)

Solved cases below.
> print(dat)
                                   molecule                  target.under.test  numeric.readout
1  COc1cc(-c2[nH]c3cnc(N4CCC(N5CC6(COC6)C5)CC4)c(F)c3c2C(C)C)cn2ncnc12  human TLR8 (Homo sapiens (Human))             0.55
2  COc1cc(-c2[nH]c3cnc(C4CCC(NC5CCOC5)CC4)cc3c2C(C)C)cn2ncnc12 (stereo not shown) [Example 342]  human TLR8 (Homo sapiens (Human))              8.3
3  COc1cc(-c2[nH]c3cnc(C4CCN(CCS(C)(=O)=O)CC4)c(C)c3c2C(C)C)cn2ncnc12  human TLR8 (Homo sapiens (Human))              7.2

(P) COc1cc(-c2[nH]c3cnc(C4CCC(NC5(C)COC5)CC4)c(F)c3c2C(C)C)cn2ncnc12 (stereo not shown) [Example 105]
(Q) COc1cc(-c2[nH]c3cnc(C4CCC(NC5CCOC5)CC4)cc3c2C(C)C)cn2ncnc12 (stereo not shown) [Example 317]
Hi! Which is lower in terms of IC50, the first one P or the second one Q ? Let me know the label of the one you choose.
P

(a) Cc1c(-c2[nH]c3cnc(C4CCC(NC5COC5)CC4)c(F)c3c2C(C)C)cn2ncnc2c1C (stereo not shown) [Example 174]
(b) COc1cc(-c2[nH]c3cnc(C4CCC(NCC(C)(C)OC)C4)cc3c2C(C)C)cn2ncnc12 (stereo not shown) [Example 96]
Compare the recorded IC50 of a and b ; state which is larger. Lab note: record the label of whichever item you select.
b

----------
Target: human TLR9 (Homo sapiens (Human), UniProt Q9NR96)
Sequence (Q9NR96 26-1032): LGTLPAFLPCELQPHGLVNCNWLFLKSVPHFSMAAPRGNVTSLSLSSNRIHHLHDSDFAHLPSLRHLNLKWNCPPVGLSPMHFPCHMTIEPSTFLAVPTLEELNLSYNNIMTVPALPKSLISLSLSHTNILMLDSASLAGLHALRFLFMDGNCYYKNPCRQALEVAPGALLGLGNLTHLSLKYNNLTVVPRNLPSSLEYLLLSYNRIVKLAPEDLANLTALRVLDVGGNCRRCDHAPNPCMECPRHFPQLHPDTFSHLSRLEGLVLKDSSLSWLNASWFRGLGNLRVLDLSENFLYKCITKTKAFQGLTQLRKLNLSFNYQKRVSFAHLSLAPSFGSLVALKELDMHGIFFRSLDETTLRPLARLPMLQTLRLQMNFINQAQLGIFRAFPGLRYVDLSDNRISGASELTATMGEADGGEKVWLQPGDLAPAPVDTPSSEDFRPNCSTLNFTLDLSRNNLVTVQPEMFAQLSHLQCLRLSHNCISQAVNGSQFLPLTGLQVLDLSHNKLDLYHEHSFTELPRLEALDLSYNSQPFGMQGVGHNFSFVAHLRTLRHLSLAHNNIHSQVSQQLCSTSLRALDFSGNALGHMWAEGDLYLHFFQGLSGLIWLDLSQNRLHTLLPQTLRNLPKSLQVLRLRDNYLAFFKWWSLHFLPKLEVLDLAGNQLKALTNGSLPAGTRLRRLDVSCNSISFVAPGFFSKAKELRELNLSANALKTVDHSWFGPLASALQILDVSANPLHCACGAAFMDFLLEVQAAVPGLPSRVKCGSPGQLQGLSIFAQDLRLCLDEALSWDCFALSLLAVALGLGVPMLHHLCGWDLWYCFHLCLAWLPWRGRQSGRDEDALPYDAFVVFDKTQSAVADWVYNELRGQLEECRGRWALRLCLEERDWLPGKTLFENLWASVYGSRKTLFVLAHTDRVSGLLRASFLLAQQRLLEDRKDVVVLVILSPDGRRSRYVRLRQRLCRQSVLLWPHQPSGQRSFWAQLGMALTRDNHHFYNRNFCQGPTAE
Assay: TLR9 inhibition reporter assay (HEK-Blue SEAP);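 note: SEAP driven by IFN-β minimal promoter carrying five NF-κB and AP-1 sites, 22 h at 37 °C, compounds 0.05 nM–50 µM, inhibition scaled between agonist-plus-DMSO and reference-inhibitor wells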
Conditions: read-out: TLR9 IC50; HEK-Blue cells overexpressing human TLR9; ODN2006 5 nM stimulation; SEAP reporter
pIC50: −log10 of the molar value.
Outcome Measure: pIC50

Example entries and their recorded answers appear below.
> print(dat)
                                   compound                         target.under.test  numeric.readout
1  Cc1cc(-c2[nH]c3cnc(C4CCC(NC(C)C)CC4)c(F)c3c2C(C)C)cn2ncnc12 (stereo not shown) [Example 230]  human TLR9 (Homo sapiens (Human), UniProt Q9NR96)             5.77
2  Cc1c(-c2[nH]c3cnc(N4CCN(C5CCOCC5)C[C@H]4C)c(F)c3c2C(C)C)cn2ncnc2c1C [Example 456]  human TLR9 (Homo sapiens (Human), UniProt Q9NR96)             4.79
3  Cc1cc(-c2[nH]c3cnc(C4CCC(NC5(C)COC5)CC4)c(F)c3c2C(C)C)cn2ncnc12 (stereo not shown) [Example 231]  human TLR9 (Homo sapiens (Human), UniProt Q9NR96)             5.38

(1) Cc1cc(-c2[nH]c3cnc(N4CCC(NC(C)C)CC4)c(F)c3c2C(C)C)cn2ncnc12 [Example 219]
(2) COc1cc(-c2[nH]c3cnc(C4CCN(C5CCOCC5)CC4)c(F)c3c2C(C)C)cn2ncnc12 [Example 217]
(3) COc1cc(-c2[nH]c3cnc(C4CCC(N(C)C(C)C)CC4)c(F)c3c2C(C)C)cn2ncnc12 (stereo not shown) [Example 227]
Order the 3 compounds from highest to lowest pIC50. Respond with the label ranking, as requested.
1, 3, 2

----------
Target: human TLR7 (Homo sapiens (Human), UniProt Q9NYK1)
Sequence (Q9NYK1 27-1049): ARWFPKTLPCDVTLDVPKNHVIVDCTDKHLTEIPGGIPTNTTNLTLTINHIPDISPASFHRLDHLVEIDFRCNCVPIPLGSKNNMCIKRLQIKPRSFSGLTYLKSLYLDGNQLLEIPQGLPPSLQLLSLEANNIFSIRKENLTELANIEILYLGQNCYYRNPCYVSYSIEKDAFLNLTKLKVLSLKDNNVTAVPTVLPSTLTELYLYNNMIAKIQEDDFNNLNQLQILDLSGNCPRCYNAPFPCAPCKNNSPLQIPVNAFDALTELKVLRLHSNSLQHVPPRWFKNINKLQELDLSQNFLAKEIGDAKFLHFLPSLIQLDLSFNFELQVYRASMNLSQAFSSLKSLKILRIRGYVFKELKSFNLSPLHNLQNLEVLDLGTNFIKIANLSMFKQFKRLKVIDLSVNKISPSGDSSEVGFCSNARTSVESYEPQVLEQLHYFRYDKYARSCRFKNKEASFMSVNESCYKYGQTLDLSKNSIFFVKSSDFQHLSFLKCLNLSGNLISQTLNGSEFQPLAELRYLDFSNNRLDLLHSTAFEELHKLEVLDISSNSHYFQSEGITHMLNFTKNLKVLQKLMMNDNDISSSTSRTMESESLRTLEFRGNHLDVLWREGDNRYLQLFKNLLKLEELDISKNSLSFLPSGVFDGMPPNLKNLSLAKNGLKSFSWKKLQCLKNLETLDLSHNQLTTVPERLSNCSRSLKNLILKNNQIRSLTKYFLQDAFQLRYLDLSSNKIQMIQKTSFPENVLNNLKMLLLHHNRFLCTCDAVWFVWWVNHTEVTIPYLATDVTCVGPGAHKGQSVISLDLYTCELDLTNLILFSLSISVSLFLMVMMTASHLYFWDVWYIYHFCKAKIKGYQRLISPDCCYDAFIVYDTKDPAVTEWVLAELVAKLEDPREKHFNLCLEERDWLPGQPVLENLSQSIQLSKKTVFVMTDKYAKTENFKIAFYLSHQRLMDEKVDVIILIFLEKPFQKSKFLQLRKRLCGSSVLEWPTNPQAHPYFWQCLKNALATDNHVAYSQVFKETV
Assay: TLR7 inhibition reporter assay (HEK-Blue SEAP)
Conditions: HEK-Blue cells overexpressing human TLR7, gardiquimod 7.5 μM stimulation
pIC50: −log10 of the molar value.
Outcome Measure: pIC50

Use the examples below as a reference point.
> print(dat)
                                   compound  outcome.measure  numeric.readout
1  Cc1c(-c2[nH]c3cnc(C4CCC(NCC(C)(C)C)CC4)c(F)c3c2C(C)C)cn2ncnc2c1C (stereo not shown) [Example 234]            pIC50             7.89
2  COc1cc(-c2[nH]c3cnc(C4CCC(N5CC6(COC6)C5)C4)cc3c2C(C)C)cn2ncnc12 (stereo not shown) [Example 209]            pIC50             7.54
3  Cc1c(-c2[nH]c3cnc(N4CCN(CC(N)=O)C[C@H]4C)c(F)c3c2C(C)C)cn2ncnc2c1C            pIC50             8.14

(A) Cc1cc(-c2[nH]c3cnc(C4CCN(CC(=O)N(C)C)CC4)c(F)c3c2C(C)C)cc(C)n1
(B) Cc1c(-c2[nH]c3cnc(N4CCN(CC(=O)N(C)C)C[C@H]4C)c(F)c3c2C(C)C)cn2ncnc2c1C
Hey, which is lower on measured pIC50, A or B ? Identify your pick by its label.
B

(a) CCN1CCN(c2ncc3[nH]c(-c4cc(OC)c5ncnn5c4)c(C(C)C)c3c2F)CC1
(b) Cc1c(-c2[nH]c3cnc(N4CC5(CNC5)C4)c(F)c3c2C(C)C)cn2ncnc2c1C
Compare pIC50: is it lower for a or for b ? State the label of the item chosen.
b

----------
Molecular target: human TLR8 (Homo sapiens (Human))
Assay: TLR8 inhibition reporter assay (HEK-Blue SEAP)
Conditions: read-out: TLR8 IC50; HEK-Blue cells overexpressing human TLR8, R848 15.9 μM stimulation, SEAP reporter
pIC50: −log10 of the molar value.
Outcome Measure: pIC50

> print(dat)
                                   compound  numeric.readout
1  Cc1c(-c2[nH]c3cnc(N4CCC(NC5CCOCC5)CC4)c(C)c3c2C(C)C)cn2ncnc2c1C [Example 205]             9.26
2  COc1cc(-c2[nH]c3cnc(N4CCC(N(C)C5COC5)CC4)c(F)c3c2C(C)C)cn2ncnc12 [Example 104]             8.77
3  Cc1c(-c2[nH]c3cnc(N4CCN(C(=O)CN5CCOCC5)CC4)c(F)c3c2C(C)C)cn2ncnc2c1C [Example 421]             7.92
4  COc1cc(-c2[nH]c3cnc(N4CCN(CCS(C)(=O)=O)CC4)c(C)c3c2C(C)C)cn2ncnc12 [Example 186]             8.18
5  COc1cc(-c2[nH]c3cnc(N4CCC(NC5COC5)CC4)c(C)c3c2C(C)C)cn2ncnc12 [Example 137]             9.05
6  COc1cc(-c2[nH]c3cnc(C4CCC(N(CC#N)C5COC5)CC4)c(F)c3c2C(C)C)cn2ncnc12 (stereo not drawn) [Example 115]             8.62

(I) Cc1c(-c2[nH]c3cnc(N4CCN(CCS(C)(=O)=O)CC4)c(C)c3c2C(C)C)cn2ncnc2c1C [Example 415]
(II) CCN(C)C1CCC(c2cc3c(C(C)C)c(-c4cc(OC)c5ncnn5c4)[nH]c3cn2)CC1 (stereo not drawn) [Example 316]
Between the two listed entries I and II , which has its pIC50 at the higher number? # reply format: chosen label
I

(P) COc1cc(-c2[nH]c3cnc(N4CCC(NC5CCOC5)CC4)c(F)c3c2C(C)C)cn2ncnc12 (stereo not drawn) [Example 190]
(Q) COc1cc(-c2[nH]c3cnc(C4CCC(NC5COC5)C4)cc3c2C(C)C)cn2ncnc12 (stereo not drawn) [Example 273]
Param pair: P , Q . Output: the one whose pIC50 is numerically greater. In your reply, give the label of the chosen option.
P

(a) COc1cc(-c2[nH]c3cnc(N4CCN(CC(=O)N5CCOCC5)CC4)c(F)c3c2C(C)C)cn2ncnc12 [Example 363]
(b) COc1cc(-c2[nH]c3cnc(C4CCNCC4)c(F)c3c2C(C)C)cn2ncnc12 [Example 3]
Compare the recorded pIC50 of a and b ; state which is larger. Answer format: the label of the selected item.
a
